Collected pIC50 values appear next to each entry.
MEASURED_TARGET: HLA-DR DRB1*1101 (DR11) (Homo sapiens, UniProt P01903+P01911, A100R/A169T/A87E/I96F/K41T/L162R/M171V/P40S/Q125H/Q178H/Q39Y/Q99D/R42S/S66Y/T262R/V115G/W38E)
Sequence (P01903 26-254 limits assumed, other chains not shown): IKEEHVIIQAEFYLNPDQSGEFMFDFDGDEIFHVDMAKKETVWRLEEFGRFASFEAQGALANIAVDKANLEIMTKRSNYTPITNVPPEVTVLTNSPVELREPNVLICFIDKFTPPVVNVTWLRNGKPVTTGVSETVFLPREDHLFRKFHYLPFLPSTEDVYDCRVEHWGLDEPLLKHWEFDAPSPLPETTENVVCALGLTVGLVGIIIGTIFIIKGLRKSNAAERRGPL
ASSAY_SUMMARY: biochemical
Format: binding
CONDITION_PARAMETERS: DRB1 *1101
pIC50 field: float, defined as -log10 of concentration (mol/L).

STRUCTURE_STRING	pIC50
CC[C@H](C)[C@H](NC(=O)[C@H](CS)NC(=O)[C@H](Cc1c[nH]cn1)NC(=O)[C@H](C)NC(=O)[C@H](C)NC(=O)[C@@H](NC(=O)[C@H](CC(C)C)NC(=O)[C@@H](NC(=O)[C@H](Cc1c[nH]c2ccccc12)NC(=O)[C@@H](N)CCC(N)=O)C(C)C)[C@@H](C)O)C(=O)N[C@@H](CCCNC(=N)N)C(=O)N[C@@H](CC(N)=O)C(=O)N[C@@H](CCCCN)C(=O)N[C@@H](CO)C(=O)N[C@H](C(=O)O)C(C)C	5.66

# next molecule below
Identify the reported pIC50 for the following entry. CC[C@H](C)[C@H](NC(=O)[C@H](CC(N)=O)NC(=O)[C@H](CCC(=O)O)NC(=O)[C@H](C)NC(=O)[C@H](CCCCN)NC(=O)[C@H](CC(C)C)NC(=O)[C@H](CCC(=O)O)NC(=O)[C@H](CC(=O)O)NC(=O)[C@@H](N)CC(C)C)C(=O)N[C@@H](CCCCN)C(=O)N[C@@H](CCCCN)C(=O)N[C@@H](Cc1ccccc1)C(=O)N[C@@H](CC(C)C)C(=O)N[C@@H](Cc1ccc(O)cc1)C(=O)N[C@@H](CC(N)=O)C(=O)O 6.49
